- Tested on: Staphylococcus epidermidis
- assay-text: Minimum inhibitory concentration against methicillin-sensitive Staphylococcus epidermidis in the presence of 30% bovine serum
- Assay type: functional
measurement-label: MIC (µg/mL)
Give bare numbers, in µg/mL.

INSERT INTO measurements (molecule, measurement_label, readout_units, observed_measurement) VALUES
  ('CN(C)CCCNC(=O)C1O[C@@H](Oc2c3cc4cc2Oc2ccc(cc2Cl)[C@@H](O)C2NC(=O)[C@H](NC(=O)[C@@H]4NC(=O)[C@H]4NC(=O)[C@@H](Cc5ccc(cc5)O3)NC(=O)[C@H](N(C)Cc3c[nH]c5ccccc35)c3ccc(O)c(c3)Oc3cc(O)c(Cl)c4c3)c3ccc(O)c(c3)-c3c(O[C@H]4O[C@H](CO)[C@@H](O)[C@H](O)[C@@H]4O)cc(O)cc3[C@@H](C(=O)NCCCN(C)C)NC2=O)C(NCc2c[nH]c3ccccc23)[C@@H](O)C1O (some centres not stated)', 'MIC', 'µg/mL', 1);

Switching to the query record.
For CN(Cc1ccc(C(=O)Oc2ccccc2)cc1)[C@H]1C(=O)N[C@@H]2Cc3ccc(cc3)Oc3cc4cc(c3O[C@@H]3OC(C(=O)O)C(O)[C@H](O)C3NCc3ccc(C(=O)Oc5ccccc5)cc3)Oc3ccc(cc3Cl)[C@@H](O)C3NC(=O)[C@H](NC(=O)[C@@H]4NC(=O)[C@@H](NC2=O)c2cc(cc(O)c2Cl)Oc2cc1ccc2O)c1ccc(O)c(c1)-c1c(O[C@H]2O[C@H](CO)[C@@H](O)[C@H](O)[C@@H]2O)cc(O)cc1[C@@H](C(=O)O)NC3=O (some centres not stated) the molecule record lists MIC as 4

These entries and their values trace back to ChEMBL document CHEMBL1142788.
